// data source = ChEMBL document CHEMBL5620344

target: Amine oxidase [flavin-containing] B (Homo sapiens); assay: Inhibition of human recombinant MAO-B
Sequence (P27338 whole entry): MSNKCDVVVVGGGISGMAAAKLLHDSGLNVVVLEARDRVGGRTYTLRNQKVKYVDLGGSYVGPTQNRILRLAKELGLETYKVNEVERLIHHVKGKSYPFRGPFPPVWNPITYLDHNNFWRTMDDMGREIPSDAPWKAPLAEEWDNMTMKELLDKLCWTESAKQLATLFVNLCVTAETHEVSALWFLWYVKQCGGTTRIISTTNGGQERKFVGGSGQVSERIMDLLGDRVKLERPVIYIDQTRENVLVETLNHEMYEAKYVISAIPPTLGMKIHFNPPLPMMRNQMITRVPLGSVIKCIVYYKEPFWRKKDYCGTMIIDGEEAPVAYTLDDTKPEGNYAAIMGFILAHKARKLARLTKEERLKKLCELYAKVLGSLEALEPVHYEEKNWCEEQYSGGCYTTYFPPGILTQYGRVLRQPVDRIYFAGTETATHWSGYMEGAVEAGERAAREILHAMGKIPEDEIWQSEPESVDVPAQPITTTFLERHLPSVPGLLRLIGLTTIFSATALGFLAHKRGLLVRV
Provide the recorded IC50 for the entries that follow.

Requested read-out: IC50. Entry: CCCCC1OC(=O)c2cc(-n3nc(-c4ccccc4O)cc3C)ccc21 (stereo not drawn)
> 10 µM

# iterate: CCCCC1OC(=O)c2cc(N3N=C(c4cccc(F)c4O)CC3=O)ccc21 (stereo not drawn)
> 10 µM

# iterate: CCCCC1OC(=O)c2cc(N3N=C(c4ccccc4O)CC3=O)ccc21 (stereo not drawn)
> 10 µM
